System: COR-L105 (Lung Adenocarcinoma)
Assay: Bliss excess, mean over the matrix (fraction); higher = more synergy

{"COMPOUND": "Cc1cc2ncnn2cc1Nc1ncc2c(n1)n(C1CCOCC1)c(=O)n2C [AZD7648] + C=CCn1c(=O)c2cnc(Nc3ccc(N4CCN(C)CC4)cc3)nc2n1-c1cccc(C(C)(C)O)n1 [AZD1775] (first compound max 10 µM, partner max 1 µM)", "Bliss excess": -0.0431}
{"COMPOUND": "C[C@@H](c1ccc2nccn2c1)n1nnc2ncc(-c3cnn(C)c3)nc21 [Savolitinib] + CC1(C)CCC(CN2CCN(c3ccc(C(=O)NS(=O)(=O)c4ccc(NCC5CCOCC5)c([N+](=O)[O-])c4)c(Oc4cnc5[nH]ccc5c4)c3)CC2)=C(c2ccc(Cl)cc2)C1 [Venetoclax] (first compound max 1 µM, 7x7, partner max 1 µM)", "Bliss excess": -0.0423}
{"COMPOUND": "C[C@@H](Nc1cc(F)cc(F)c1)c1cc(C(=O)N(C)C)cc2c(=O)cc(N3CCOCC3)oc12 [AZD8186] + C1CN(CCC1(C(=O)N[C@@H](CCO)C2=CC=C(C=C2)Cl)N)C3=NC=NC4=C3C=CN4 [AZD5363] (first compound max 10 µM, 7x7, partner max 10 µM)", "Bliss excess": 0.0189}

---

System: SUP-HD1 (Hodgkin's Lymphoma)
Test: Bliss excess, mean over the matrix (fraction); higher = more synergy

{"COMPOUND": "COc1cccc(OCCCN)c1-c1cc(Nc2cnc(C#N)cn2)n[nH]1 [Prexasertib] + Cc1cc2ncnn2cc1Nc1ncc2c(n1)n(C1CCOCC1)c(=O)n2C [AZD7648] (first compound max 1 µM, 7x7, partner max 10 µM)", "ASSAY SYSTEM": "SUP-HD1 (Hodgkin's Lymphoma)", "Bliss excess": -0.0443}
{"COMPOUND": "CN(C)CCCOc1ccc(-c2ccc3ncc4c(c3c2)n(C2CCOCC2)c(=O)n4C)cn1 [AZD0156] + O=C(c1cc(Cc2n[nH]c(=O)c3ccccc23)ccc1F)N1CCN(C(=O)C2CC2)CC1 [Olaparib] (first compound max 3 µM, partner max 3 µM)", "ASSAY SYSTEM": "SUP-HD1 (Hodgkin's Lymphoma)", "Bliss excess": -0.039}
{"COMPOUND": "CC(=O)c1c(C)c2cnc(Nc3ccc(N4CCNCC4)cn3)nc2n(C2CCCC2)c1=O [Palbociclib] + CC1(C)CCC(CN2CCN(c3ccc(C(=O)NS(=O)(=O)c4ccc(NCC5CCOCC5)c([N+](=O)[O-])c4)c(Oc4cnc5[nH]ccc5c4)c3)CC2)=C(c2ccc(Cl)cc2)C1 [Venetoclax] (first compound max 10 µM, 7x7, partner max 1 µM)", "ASSAY SYSTEM": "SUP-HD1 (Hodgkin's Lymphoma)", "Bliss excess": -0.0641}
{"COMPOUND": "NC1(C(=O)N[C@@H](CCO)c2ccc(Cl)cc2)CCN(c2ncnc3[nH]ccc23)CC1 [Capivasertib] + CC(=O)c1c(C)c2cnc(Nc3ccc(N4CCNCC4)cn3)nc2n(C2CCCC2)c1=O [Palbociclib] (first compound max 10 µM, 7x7, partner max 10 µM)", "ASSAY SYSTEM": "SUP-HD1 (Hodgkin's Lymphoma)", "Bliss excess": -0.0643}

---

Tested on: NCI-H2170 (Squamous Cell Lung Carcinoma)
Assay: combination Emax (second highest fraction inhibited in the dose matrix, 72 h); higher = more inhibition; extreme values may be limits of the assay
OBSERVABLE: combination Emax

{"COMPOUND": "Cc1c2c(nn1C)CSCc1cc(n(C)n1)CSc1cc(c3ccccc3c1)OCCCc1c(C(=O)O)n(C)c3c-2c(Cl)ccc13 [AZD5991] + CC1(C)CCC(CN2CCN(c3ccc(C(=O)NS(=O)(=O)c4ccc(NCC5CCOCC5)c([N+](=O)[O-])c4)c(Oc4cnc5[nH]ccc5c4)c3)CC2)=C(c2ccc(Cl)cc2)C1 [Venetoclax] (first compound max 1 µM, 7x7, partner max 1 µM)", "ASSAY SYSTEM": "NCI-H2170 (Squamous Cell Lung Carcinoma)", "NUMBER": 0.237}
{"COMPOUND": "CC1(C)CCC(CN2CCN(c3ccc(C(=O)NS(=O)(=O)c4ccc(NCC5CCOCC5)c([N+](=O)[O-])c4)c(Oc4cnc5[nH]ccc5c4)c3)CC2)=C(c2ccc(Cl)cc2)C1 [Venetoclax] + C=CCn1c(=O)c2cnc(Nc3ccc(N4CCN(C)CC4)cc3)nc2n1-c1cccc(C(C)(C)O)n1 [AZD1775] (first compound max 1 µM, partner max 1 µM)", "ASSAY SYSTEM": "NCI-H2170 (Squamous Cell Lung Carcinoma)", "NUMBER": 0.652}
{"COMPOUND": "CC1(C)CCC(CN2CCN(c3ccc(C(=O)NS(=O)(=O)c4ccc(NCC5CCOCC5)c([N+](=O)[O-])c4)c(Oc4cnc5[nH]ccc5c4)c3)CC2)=C(c2ccc(Cl)cc2)C1 [Venetoclax] + C1CN(CCC1(C(=O)N[C@@H](CCO)C2=CC=C(C=C2)Cl)N)C3=NC=NC4=C3C=CN4 [Capivasertib] (first compound max 1 µM, 7x7, partner max 3 µM)", "ASSAY SYSTEM": "NCI-H2170 (Squamous Cell Lung Carcinoma)", "NUMBER": 0.375}
{"COMPOUND": "CCN(CCO)CCCOc1ccc2c(Nc3cc(CC(=O)Nc4cccc(F)c4)[nH]n3)ncnc2c1 [AZD2811] + C[C@@H]1COCCN1C2=NC(=NC(=C2)C3(CC3)[S@](=N)(=O)C)C4=C5C=CNC5=NC=C4 [AZD6738] (first compound max 1 µM, 7x7, partner max 10 µM)", "ASSAY SYSTEM": "NCI-H2170 (Squamous Cell Lung Carcinoma)", "NUMBER": 0.803}
{"COMPOUND": "CN(C)CCCOc1ccc(-c2ccc3ncc4c(c3c2)n(C2CCOCC2)c(=O)n4C)cn1 [AZD0156] + CCN(CCO)CCCOc1ccc2c(Nc3cc(CC(=O)Nc4cccc(F)c4)[nH]n3)ncnc2c1 [AZD2811] (first compound max 1 µM, 7x7, partner max 1 µM)", "ASSAY SYSTEM": "NCI-H2170 (Squamous Cell Lung Carcinoma)", "NUMBER": 0.656}
{"COMPOUND": "CN(CCO)CC[C@H](CSc1ccccc1)Nc1ccc(S(=O)(=O)NC(=O)c2ccc(N3CCC([C@@H](O)c4ccccc4-c4ccc(Cl)cc4)CC3)cc2)cc1S(=O)(=O)C(F)(F)F [AZD4320] + CCN(CCO)CCCOc1ccc2c(Nc3cc(CC(=O)Nc4cccc(F)c4)[nH]n3)ncnc2c1 [AZD2811] (first compound max 1 µM, 7x7, partner max 1 µM)", "ASSAY SYSTEM": "NCI-H2170 (Squamous Cell Lung Carcinoma)", "NUMBER": 0.627}
